target: Pim2 kinase (Homo sapiens, UniProt Q9P1W9); test: Pim2 ATP depletion assay; type: biochemical; details: read-out: IC50 (μM) PIM2;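 also: Luciferase-based luminescent readout of ATP remaining after PIM2 phosphorylates a BAD peptide, final 5 nM enzyme, 4 µM ATP, 10 µM peptide, 2.5% DMSO, run to roughly half ATP consumption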
Sequence (Q9P1W9 whole entry): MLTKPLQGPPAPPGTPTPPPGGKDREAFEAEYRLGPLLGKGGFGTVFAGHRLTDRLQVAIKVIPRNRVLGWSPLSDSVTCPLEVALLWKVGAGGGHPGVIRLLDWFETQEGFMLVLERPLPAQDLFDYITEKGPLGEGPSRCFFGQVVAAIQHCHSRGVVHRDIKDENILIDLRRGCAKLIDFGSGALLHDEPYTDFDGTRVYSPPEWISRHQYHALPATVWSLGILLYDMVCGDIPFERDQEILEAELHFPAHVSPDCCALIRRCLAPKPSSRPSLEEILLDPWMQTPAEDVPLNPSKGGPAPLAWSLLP
ENDPOINT LABEL: IC50

Cc1nc(N)cc(-c2ccncc2NC(=O)c2nc(-c3cc(C(=O)NC(C)C)ccc3F)ccc2N)n1 : < 1 µM
NCCC(=O)N1CCN(c2ccncc2NC(=O)c2nc(Br)cnc2N)CC1 : < 1 µM

// switching to the query molecule
Data request: # query: IC50 of entry CS(=O)(=O)Nc1cccc(-c2nc(C(=O)Nc3cnccc3N3CCC[C@H](N)C3)c(N)cc2F)c1
Data returned: < 1 µM

----------
Target: human full length PKCE enzyme (Homo sapiens)
Sequence (Q02156 1-737): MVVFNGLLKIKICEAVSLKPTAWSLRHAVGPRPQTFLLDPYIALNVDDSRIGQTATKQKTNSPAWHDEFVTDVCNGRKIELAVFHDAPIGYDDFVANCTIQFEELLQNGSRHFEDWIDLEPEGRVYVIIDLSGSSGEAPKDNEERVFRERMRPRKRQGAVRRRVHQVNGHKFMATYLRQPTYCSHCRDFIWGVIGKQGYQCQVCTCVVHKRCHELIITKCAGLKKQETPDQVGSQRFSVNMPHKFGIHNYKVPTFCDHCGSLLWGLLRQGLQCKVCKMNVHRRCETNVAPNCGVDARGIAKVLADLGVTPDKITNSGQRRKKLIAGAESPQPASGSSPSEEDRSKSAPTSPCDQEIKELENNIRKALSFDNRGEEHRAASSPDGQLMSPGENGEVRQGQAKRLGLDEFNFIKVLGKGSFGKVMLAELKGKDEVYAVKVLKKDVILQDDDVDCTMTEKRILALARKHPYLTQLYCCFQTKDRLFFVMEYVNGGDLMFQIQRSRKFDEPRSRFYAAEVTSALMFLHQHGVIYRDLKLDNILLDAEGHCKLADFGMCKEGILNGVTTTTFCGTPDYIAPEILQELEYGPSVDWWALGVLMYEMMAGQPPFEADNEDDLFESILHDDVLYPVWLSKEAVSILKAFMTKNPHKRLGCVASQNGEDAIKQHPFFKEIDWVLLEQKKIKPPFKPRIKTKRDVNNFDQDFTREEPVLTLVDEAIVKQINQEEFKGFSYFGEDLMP
pIC50: −log10 of the molar value.
ENDPOINT LABEL: pIC50

Nc1ncc(Br)nc1C(=O)Nc1[nH]c(=O)ncc1N1CCC(C(F)(F)F)CC1 : < 4.60
Cc1ccc(-c2ccc(N)c(C(=O)Nc3cnccc3N3CCC[C@H](N)C3)n2)c(F)c1 : 5.00 to 6.00
Nc1ccc(-c2cccnc2F)nc1C(=O)Nc1ccncc1N1CCCC(N)C1 (centres unmarked) : 5.00 to 6.00
Nc1ncc(Br)nc1C(=O)Nc1ccccc1N1CCCC(N)C1 (centres unmarked) : > 6.00
Nc1ncc(-c2ccccc2F)nc1C(=O)Nc1cnccc1N1CCNCC1 : > 6.00

Data request: Hi! What's the reported pIC50 for Nc1nccnc1C(=O)Nc1cnccc1N1CCC[C@H](N)C1 on human full length PKCE enzyme (Homo sapiens)?
Data returned: > 6.00

Data request: GET /values?readout=pIC50&system=human full length PKCE enzyme (Homo sapiens)&item= Nc1ncc(-c2ccccc2C(F)(F)F)nc1C(=O)Nc1cnccc1N1CCCC(N)C1 (centres unmarked)
Data returned: > 6.00

Data request: Hello, I am looking for reported pIC50 with human full length PKCE enzyme (Homo sapiens) for Cc1ccc(NC(=O)c2nccnc2N)c(N2CCCC(N)C2)c1 (centres unmarked) . Could you help?
Data returned: 5.00 to 6.00
